Measured MIC (Enterococcus faecalis ATCC 29212)

# Molecule, Unit abbreviation, MIC
rows = [
    ("Cn1c(=O)ccc2ccc(F)c(CCNC[C@H]3CN(c4ncc5c(n4)NC(=O)CO5)C(=O)O3)c21 [Example 16]", "µg/mL", 0.25),
    ("Cn1c(=O)ccc2ccc(F)c(CCNC[C@H]3CN(c4cnc5c(n4)NC(=O)CO5)C(=O)O3)c21 [Example 15]", "µg/mL", 0.06),
    ("Cn1c(=O)ccc2ccc(F)c(CCNCC[C@H]3CN(c4cnc5c(n4)NC(=O)CO5)C(=O)O3)c21 (single isomer, unassigned) [Example 24]", "µg/mL", 0.125),
    ("Cn1c(=O)ccc2ccc(F)c(CCNC[C@H]3CN(c4ccc5c(n4)NC(=O)CO5)C(=O)O3)c21 [Example 8]", "µg/mL", 0.06),
]
